# protein stability index per entry
B1: SLC35F2 (parent)
chain: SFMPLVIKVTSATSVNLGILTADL

variants of: B1; experiment: protein stability index of a GFP-peptide fusion (GPS, HEK-293T) (PSI 1-6); higher = more stable; details: c terminus: a fixed tail appended;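 also: lentivirally expressed fusions sorted by FACS into six bins by GFP to DsRed ratio, PSI derived from sequencing read proportions per bin multiplied by bin number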

These recorded examples may help you get a feel for the data.
{"residue change": "L24Q", "protein stability index": 2.79}
{"residue change": "V9E", "protein stability index": 1.58}
{"residue change": "N16L", "protein stability index": 3.94}
{"residue change": "L24H", "protein stability index": 3.57}

Qu. What protein stability index value was documented for this variant, T13H ?
Ans. 4

Qu. Endpoint output: protein stability index of V6D . Value?
Ans. 2.09

Qu. // returns reported protein stability index for input V9P
Ans. 1.7
